Target: CDK2 (human)
Assay: Enzyme Assay
observed-property: pIC50
In simple prose, pIC50 is minus the logarithm base ten of a concentration in moles per litre.

For the compound "COCCCNS(=O)(=O)c1ccc(Nc2nccc(-c3cnc4ccccn34)n2)cc1" , report pIC50.
8.52

* * *

List of pIC50 tested on UniProt P00533.
Sequence (P00533 whole entry, looked up): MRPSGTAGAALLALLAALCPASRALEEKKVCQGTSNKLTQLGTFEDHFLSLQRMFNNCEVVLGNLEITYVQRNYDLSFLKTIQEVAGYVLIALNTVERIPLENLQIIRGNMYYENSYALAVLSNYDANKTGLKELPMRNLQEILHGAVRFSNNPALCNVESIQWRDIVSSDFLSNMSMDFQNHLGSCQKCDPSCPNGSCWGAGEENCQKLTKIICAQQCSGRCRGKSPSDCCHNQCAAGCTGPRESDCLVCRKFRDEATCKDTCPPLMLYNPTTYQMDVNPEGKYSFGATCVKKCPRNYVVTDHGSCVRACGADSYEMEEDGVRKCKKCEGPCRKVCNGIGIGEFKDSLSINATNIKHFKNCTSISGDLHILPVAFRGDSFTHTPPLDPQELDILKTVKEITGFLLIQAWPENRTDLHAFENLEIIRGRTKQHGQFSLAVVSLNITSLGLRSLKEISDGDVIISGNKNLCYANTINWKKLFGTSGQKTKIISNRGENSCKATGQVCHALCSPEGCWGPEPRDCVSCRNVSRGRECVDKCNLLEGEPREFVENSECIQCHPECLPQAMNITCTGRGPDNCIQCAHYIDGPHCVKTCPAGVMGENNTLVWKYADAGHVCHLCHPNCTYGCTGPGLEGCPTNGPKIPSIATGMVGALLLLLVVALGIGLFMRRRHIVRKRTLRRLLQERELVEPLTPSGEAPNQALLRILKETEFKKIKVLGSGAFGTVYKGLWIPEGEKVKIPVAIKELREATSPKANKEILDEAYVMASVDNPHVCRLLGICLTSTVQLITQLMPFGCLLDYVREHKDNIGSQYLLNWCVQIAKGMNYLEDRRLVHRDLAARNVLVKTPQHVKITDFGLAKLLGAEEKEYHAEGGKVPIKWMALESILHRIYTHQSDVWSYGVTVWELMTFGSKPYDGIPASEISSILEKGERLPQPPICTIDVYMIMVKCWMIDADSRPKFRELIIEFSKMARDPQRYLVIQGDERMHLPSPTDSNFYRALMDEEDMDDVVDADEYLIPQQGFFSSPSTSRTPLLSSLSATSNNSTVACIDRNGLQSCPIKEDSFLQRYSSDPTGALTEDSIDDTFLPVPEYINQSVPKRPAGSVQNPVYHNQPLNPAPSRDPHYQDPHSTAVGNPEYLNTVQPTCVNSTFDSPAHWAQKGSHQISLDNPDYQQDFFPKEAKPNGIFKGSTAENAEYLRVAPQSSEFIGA
In simple prose, pIC50 is minus the logarithm base ten of a concentration in moles per litre.

# test-smiles, pIC50
data = [
    ("Cn1c(=O)c(-c2c(Cl)cccc2Cl)cc2cnc(Nc3cccc(Br)c3)nc21", 6.51),
]

Consider the additional molecule presented here.
# return pIC50 of "CCn1c(=O)c(-c2c(Cl)cccc2Cl)cc2cnc(Nc3ccncc3)nc21" (system: UniProt P00533)
6.60
